# Tested on: Nakaseomyces glabratus
# assay.text: Antifungal activity against fluconazole-resistant Candida glabrata DSY530 increase expressing of CgCDR1 gene after 24 hrs by visually and spectrophotometric analysis
# Type: functional
# conditions.used: DSY530, 24 h
observed.property: MIC90 (µg/mL)

record.smiles	quantitative.result
N=C(NCCCCCCCCN1CCCCCCCCNC(=N)NC1=O)NCC1CC1.O=C(O)C(F)(F)F	16
C/C=C/CNC(=N)NCCCCCCCCN1CCCCCOC(=O)CCNC(=N)NC1=O.O=C(O)C(F)(F)F	32
C[C@@H](c1ncncc1F)[C@](O)(Cn1cncn1)c1ccc(F)cc1F	0.5
C/C=C/CNC(=N)NCCCCCCCCN1CCCCCOc2ccccc2CNC(=N)NC1=O.O=C(O)C(F)(F)F	8
C/C=C/CNC(=N)NCCCCCCCCN1CCCCOc2ccccc2CNC(=N)NC1=O.O=C(O)C(F)(F)F	64
C/C=C/CNC(=N)NCCCCCCCCN1CCCCOC(=O)CCNC(=N)NC1=O.O=C(O)C(F)(F)F	64
C/C=C/CNC(=N)NCCCCCCCCN1CCCCCCOc2ccccc2CNC(=N)NC1=O.O=C(O)C(F)(F)F	36
C=CCNC(=N)NCCCCCCCCN1CCCCCCCCNC(=N)NC1=O.O=C(O)C(F)(F)F	16
OC(Cn1cncn1)(Cn1cncn1)c1ccc(F)cc1F	64

###

MIC90 listing for selected compounds.
# System: Nakaseomyces glabratus
# assay.text: Antifungal activity against fluconazole-resistant Candida glabrata DSY756 increase expressing of CgCDR1, CgCDR2, and CgSNQ2 genes after 24 hrs by visually and spectrophotometric analysis
# Format: functional
# conditions.used: DSY756, 24 h
observed.property: MIC90 (µg/mL)

compound	unit.info	quantitative.result
C/C=C/CNC(=N)NCCCCCCCCN1CCCCOc2ccccc2CNC(=N)NC1=O.O=C(O)C(F)(F)F	µg/mL	64
C/C=C/CNC(=N)NCCCCCCCCN1CCCCCOC(=O)CCNC(=N)NC1=O.O=C(O)C(F)(F)F	µg/mL	64
C/C=C/CNC(=N)NCCCCCCCCN1CCCCOC(=O)CCNC(=N)NC1=O.O=C(O)C(F)(F)F	µg/mL	128
OC(Cn1cncn1)(Cn1cncn1)c1ccc(F)cc1F [FLUCONAZOLE]	µg/mL	128
C/C=C/CNC(=N)NCCCCCCCCN1CCCCCOc2ccccc2CNC(=N)NC1=O.O=C(O)C(F)(F)F	µg/mL	8
C=CCNC(=N)NCCCCCCCCN1CCCCCCCCNC(=N)NC1=O.O=C(O)C(F)(F)F	µg/mL	16
C/C=C/CNC(=N)NCCCCCCCCN1CCCCCCOc2ccccc2CNC(=N)NC1=O.O=C(O)C(F)(F)F	µg/mL	36
N=C(NCCCCCCCCN1CCCCCCCCNC(=N)NC1=O)NCC1CC1.O=C(O)C(F)(F)F	µg/mL	16
C[C@@H](c1ncncc1F)[C@](O)(Cn1cncn1)c1ccc(F)cc1F [VORICONAZOLE]	µg/mL	4

###

# Test system: Clavispora lusitaniae
# assay.text: Antifungal activity against Candida lusitaniae ATCC 200952 after 24 hrs by visually and spectrophotometric analysis
# Format: functional
observed.property: MIC90 (µg/mL)

record.smiles	observed.property	quantitative.result
N=C(NCCCCCCCCN1CCCCCCCCNC(=N)NC1=O)NCC1CC1.O=C(O)C(F)(F)F	MIC90	1
C/C=C/CNC(=N)NCCCCCCCCN1CCCCOc2ccccc2CNC(=N)NC1=O.O=C(O)C(F)(F)F	MIC90	8
C/C=C/CNC(=N)NCCCCCCCCN1CCCCCCOc2ccccc2CNC(=N)NC1=O.O=C(O)C(F)(F)F	MIC90	5
C=CCNC(=N)NCCCCCCCCN1CCCCCCCCNC(=N)NC1=O.O=C(O)C(F)(F)F	MIC90	2
C/C=C/CNC(=N)NCCCCCCCCN1CCCCOC(=O)CCNC(=N)NC1=O.O=C(O)C(F)(F)F	MIC90	4
C/C=C/CNC(=N)NCCCCCCCCN1CCCCCOc2ccccc2CNC(=N)NC1=O.O=C(O)C(F)(F)F	MIC90	2
C[C@@H]1[C@H](O)[C@@H](C)/C=C/C=C/C=C/C=C/C=C/C=C/C=C/[C@H](O[C@@H]2O[C@H](C)[C@@H](O)[C@H](N)[C@@H]2O)C[C@@H]2O[C@](O)(C[C@@H](O)C[C@@H](O)[C@H](O)CC[C@@H](O)C[C@@H](O)CC(=O)O[C@H]1C)C[C@H](O)[C@H]2C(=O)O	MIC90	2
C/C=C/CNC(=N)NCCCCCCCCN1CCCCCOC(=O)CCNC(=N)NC1=O.O=C(O)C(F)(F)F	MIC90	4
